The reported numbers originate from ChEMBL document CHEMBL1828553.

tested on: Blood; experiment: Inhibition of LPS-induced TNFalpha production in human whole blood after 24 hrs by ELISA; type: functional, tissue-based
value.kind: IC50 (nM)
Report the value in nM with no unit label.

Take a look at these entries with their results.
{"columns": ["structure.notation", "assay.target", "experimental.value"],
 "data": [
  ["CC1(C)CCc2c(N3CCOCC3)nc3oc4c(NCc5cccnc5)ncnc4c3c2C1", "Blood", 433],
  ["CC(C)Nc1nc2oc3c(NCc4cccnc4)ncnc3c2c2c1CCC(C)(C)C2", "Blood", 201],
  ["CC1(C)CCc2c(N3CCOCC3)nc3oc4c(N(CCO)CCN5CCOCC5)ncnc4c3c2C1", "Blood", 112]
]}

Look up and state reported IC50 for CCNc1nc2oc3c(NCCN4CCOCC4)ncnc3c2c2c1CCC(C)(C)C2
268

Look up and state reported IC50 for CC(C)Nc1nc2oc3c(NCCCN4CCCC4=O)ncnc3c2c2c1CCC(C)(C)C2
12

Look up and state reported IC50 for O=C(Nc1c(Cl)cncc1Cl)c1ccc(OC(F)F)c(OCC2CC2)c1
22

Look up and state reported IC50 for CC1(C)CCc2c(NCCO)nc3oc4c(NCc5cccnc5)ncnc4c3c2C1
819

Look up and state reported IC50 for CC(C)Nc1nc2oc3c(NCCN4CCOCC4)ncnc3c2c2c1CCC(C)(C)C2
268

---

assay: AUC (0 to t) in ferret at 0.3 mg/kg, po; format: ADME, organism-based, Mustela putorius furo; parameters: dose 0.3 mg/kg, route oral; details: plasma
value.kind: AUC(0-t) (ng·h/mL)
Report the value in ng·h/mL with no unit label.

Look up and state reported AUC(0-t) for O=C(Nc1c(Cl)cncc1Cl)c1ccc(OC(F)F)c(OCC2CC2)c1
95

---

experiment: Half life in ferret at 0.1 mg/kg, po; format: ADME, organism-based, Mustela putorius furo; design: dose 0.1 mg/kg, route oral; details: in vivo
value.kind: half-life (min)
Report the value in min with no unit label.

Look up and state reported half-life for CC(C)Nc1nc2oc3c(NCCCN4CCCC4=O)ncnc3c2c2c1CCC(C)(C)C2
30

---

assay: Apparent permeability across human Caco2 cells after 3 hrs; assay type: ADME, cell-based; conditions: Caco-2
value.kind: Papp at 3 h (×10⁻⁶ cm/s)
Report the value in ×10⁻⁶ cm/s with no unit label.

Look up and state reported Papp at 3 h for CC(C)Nc1nc2oc3c(NCCCN4CCCC4=O)ncnc3c2c2c1CCC(C)(C)C2
24

---

Notes on pIC50 obtained with 3',5'-cyclic-AMP phosphodiesterase 4B (Homo sapiens).
Sequence (Q07343 whole entry): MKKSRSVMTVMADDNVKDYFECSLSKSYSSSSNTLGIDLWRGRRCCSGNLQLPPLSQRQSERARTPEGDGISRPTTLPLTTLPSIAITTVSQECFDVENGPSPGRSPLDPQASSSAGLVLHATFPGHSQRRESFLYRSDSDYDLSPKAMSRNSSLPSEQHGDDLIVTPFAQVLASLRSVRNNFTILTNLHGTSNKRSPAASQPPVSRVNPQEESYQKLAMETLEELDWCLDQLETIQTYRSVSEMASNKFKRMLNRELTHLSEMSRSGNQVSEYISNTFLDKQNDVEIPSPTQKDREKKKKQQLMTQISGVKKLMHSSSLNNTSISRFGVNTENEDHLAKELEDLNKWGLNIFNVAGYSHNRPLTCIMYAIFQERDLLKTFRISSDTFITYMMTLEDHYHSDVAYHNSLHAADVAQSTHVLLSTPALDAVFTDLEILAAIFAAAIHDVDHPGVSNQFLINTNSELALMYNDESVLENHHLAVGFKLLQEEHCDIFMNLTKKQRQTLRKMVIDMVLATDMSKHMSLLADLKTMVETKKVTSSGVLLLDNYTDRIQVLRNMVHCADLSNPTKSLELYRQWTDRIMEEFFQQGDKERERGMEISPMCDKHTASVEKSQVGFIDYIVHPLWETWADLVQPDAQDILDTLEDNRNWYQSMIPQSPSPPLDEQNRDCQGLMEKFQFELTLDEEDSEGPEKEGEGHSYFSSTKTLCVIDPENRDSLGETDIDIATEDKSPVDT
# reply with the number alone; pIC50 is -log10 of concentration in mol/L

GET pIC50 | system: 3',5'-cyclic-AMP phosphodiesterase 4B (Homo sapiens) | item: CC1(C)Cc2c(c(N3CCOCC3)nc3oc4c(N(CCO)CCN5CCOCC5)ncnc4c23)CO1
7.10

GET pIC50 | system: 3',5'-cyclic-AMP phosphodiesterase 4B (Homo sapiens) | item: CC(C)Nc1nc2oc3c(NCCN4CCOCC4)ncnc3c2c2c1CCC(C)(C)C2
9.70

GET pIC50 | system: 3',5'-cyclic-AMP phosphodiesterase 4B (Homo sapiens) | item: CC1(C)CCc2c(N3CCOCC3)nc3oc4c(NCc5cccnc5)ncnc4c3c2C1
8.22

GET pIC50 | system: 3',5'-cyclic-AMP phosphodiesterase 4B (Homo sapiens) | item: CC1(C)CCc2c(N3CCOCC3)nc3oc4c(NCCN5CCOCC5)ncnc4c3c2C1
8.06

GET pIC50 | system: 3',5'-cyclic-AMP phosphodiesterase 4B (Homo sapiens) | item: CCN(C)c1nc2oc3c(NCCN4CCOCC4)ncnc3c2c2c1CCC(C)(C)C2
7.72

GET pIC50 | system: 3',5'-cyclic-AMP phosphodiesterase 4B (Homo sapiens) | item: CCNc1nc2oc3c(NCc4cccnc4)ncnc3c2c2c1CCC(C)(C)C2
8.37
